Source of measurements: ChEMBL document CHEMBL1153598

Test system: Staphylococcus epidermidis
Experiment: Antibiotic activity against Staphylococcus epidermidis NBRC 12933 by microplate dilution assay
Assay type: functional
Non-standard residues stand in square brackets, D forms with d. Residues, ends and D or L forms follow the SMILES beside them. Orn = NCCC[C@H](N)C(=O)O
Endpoint name: MIC (µg/mL)

Compound	Value operator	Observed measurement
CC(C)C[C@@H]1NC(=O)[C@H](CCCN)NC(=O)[C@H](C(C)C)NC(=O)[C@@H]2CCCN2C(=O)[C@@H](Cc2ccccc2)NC(=O)[C@H](CC(C)C)NC(=O)[C@H](CCCN)NC(=O)[C@H](C(C)C)NC(=O)[C@@H]2CCCN2C(=O)[C@@H](Cc2ccccc2)NC1=O [GRAMICIDIN S] (cyclo(L[dF]PV[Orn]L[dF]PV[Orn]))	=	3.13
CC(C)C[C@@H]1NC(=O)[C@H](CCCN)NC(=O)[C@H](C(C)C)NC(=O)[C@@H](CCC(N)=O)NC(=O)[C@@H]2CCCN2C(=O)[C@@H](Cc2ccccc2)NC(=O)[C@H](CC(C)C)NC(=O)[C@H](CCCN)NC(=O)[C@H](C(C)C)NC(=O)[C@@H](CCC(N)=O)NC(=O)[C@@H]2CCCN2C(=O)[C@@H](Cc2ccccc2)NC1=O	=	25
CC(C)C[C@@H]1NC(=O)[C@H](CCCN)NC(=O)[C@H](C(C)C)NC(=O)[C@@H](Cc2cnc[nH]2)NC(=O)[C@@H]2CCCN2C(=O)[C@@H](Cc2ccccc2)NC(=O)[C@H](CC(C)C)NC(=O)[C@H](CCCN)NC(=O)[C@H](C(C)C)NC(=O)[C@@H](Cc2cnc[nH]2)NC(=O)[C@@H]2CCCN2C(=O)[C@@H](Cc2ccccc2)NC1=O	=	25
CC(C)C[C@@H]1NC(=O)[C@H](CCCN)NC(=O)[C@H](C(C)C)NC(=O)[C@@H](C(C)C)NC(=O)[C@@H]2CCCN2C(=O)[C@@H](Cc2ccccc2)NC(=O)[C@H](CC(C)C)NC(=O)[C@H](CCCN)NC(=O)[C@H](C(C)C)NC(=O)[C@@H](C(C)C)NC(=O)[C@@H]2CCCN2C(=O)[C@@H](Cc2ccccc2)NC1=O	=	12.5
CC(C)C[C@@H]1NC(=O)[C@H](CCCN)NC(=O)[C@H](C(C)C)NC(=O)[C@@H](CCC(=O)O)NC(=O)[C@@H]2CCCN2C(=O)[C@@H](Cc2ccccc2)NC(=O)[C@H](CC(C)C)NC(=O)[C@H](CCCN)NC(=O)[C@H](C(C)C)NC(=O)[C@@H](CCC(=O)O)NC(=O)[C@@H]2CCCN2C(=O)[C@@H](Cc2ccccc2)NC1=O	>	100
CC(C)C[C@@H]1NC(=O)[C@H](CCCN)NC(=O)[C@H](C(C)C)NC(=O)[C@@H](CCCNC(=N)N)NC(=O)[C@@H]2CCCN2C(=O)[C@@H](Cc2ccccc2)NC(=O)[C@H](CC(C)C)NC(=O)[C@H](CCCN)NC(=O)[C@H](C(C)C)NC(=O)[C@@H](CCCNC(=N)N)NC(=O)[C@@H]2CCCN2C(=O)[C@@H](Cc2ccccc2)NC1=O	=	6.25
CCCC[C@H]1NC(=O)[C@@H]2CCCN2C(=O)[C@@H](Cc2ccccc2)NC(=O)[C@H](CC(C)C)NC(=O)[C@H](CCCN)NC(=O)[C@H](C(C)C)NC(=O)[C@@H](CCCC)NC(=O)[C@@H]2CCCN2C(=O)[C@@H](Cc2ccccc2)NC(=O)[C@H](CC(C)C)NC(=O)[C@H](CCCN)NC(=O)[C@H](C(C)C)NC1=O	=	6.25
CC(C)C[C@@H]1NC(=O)[C@H](CCCN)NC(=O)[C@H](C(C)C)NC(=O)CNC(=O)[C@@H]2CCCN2C(=O)[C@@H](Cc2ccccc2)NC(=O)[C@H](CC(C)C)NC(=O)[C@H](CCCN)NC(=O)[C@H](C(C)C)NC(=O)CNC(=O)[C@@H]2CCCN2C(=O)[C@@H](Cc2ccccc2)NC1=O	>	100
